Entries and their IC50 values follow.
ASSAYED TARGET: Granzyme B (human lymphocytes) (Homo sapiens (Human), UniProt P10144)
Sequence (P10144 21-247): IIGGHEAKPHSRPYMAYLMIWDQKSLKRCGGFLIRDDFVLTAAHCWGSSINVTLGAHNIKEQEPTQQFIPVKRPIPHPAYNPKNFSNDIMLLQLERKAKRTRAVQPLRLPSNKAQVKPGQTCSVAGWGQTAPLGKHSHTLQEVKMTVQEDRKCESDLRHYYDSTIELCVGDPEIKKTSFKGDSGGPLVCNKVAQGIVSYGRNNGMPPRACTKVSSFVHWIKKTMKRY
PROTOCOL: human Granzyme B biochemical assay
CONDITION INFO: Granzyme B (human lymphocytes) 5 nM, substrate Ac-IETD-AFC 200 μM, Cpd incubation with enzyme 30 mins, 22° C., read time 60 mins; read-out: IC50

Solved entries:
COC(=O)[C@H](CO)NC(=O)[C@@H]1Cc2cccc3c2N1C(=O)[C@@H](NC(=O)[C@@H](NC(C)=O)C(C)C)CC3 : > 5000 nM
CC(=O)N[C@H](C(=O)N[C@H]1CCc2cccc3c2N(C1=O)[C@H](C(=O)NCc1c[nH]nn1)C3)C1CCCCC1 : 301 to 1000 nM

Please look at the following compound next.
Prompt line: Would you mind telling me what IC50 value was observed for COC(=O)[C@@H](C)NC(=O)[C@@H]1Cc2cccc3c2N1C(=O)[C@@H](NC(=O)[C@@H](NC(C)=O)C(C)C)CC3 ?
Response line: > 5000 nM

----------
ASSAYED TARGET: UniProt P10144
PROTOCOL: human Granzyme B biochemical assay
CONDITION INFO: Granzyme B (human lymphocytes) 5 nM, substrate Ac-IETD-AFC 200 μM, Cpd incubation with enzyme 30 mins, 22° C., read time 60 mins; read-out: IC50
ENDPOINT LABEL: IC50

CC(C)[C@H](NC(=O)c1ccccc1)C(=O)N[C@H]1CCc2cccc3c2N(C1=O)[C@H](C(=O)NCc1c[nH]nn1)C3 : 1 to 300 nM
CC[C@H](C)[C@H](NC(=O)COCCF)C(=O)N[C@H]1CN(C)c2cccc3c2N(C1=O)[C@H](C(=O)NCc1c[nH]nn1)C3 : 1 to 300 nM
CC[C@H](C)[C@H](NC(=O)Cc1nc2ccccc2[nH]1)C(=O)N[C@H]1CCc2cccc3c2N(C1=O)[C@H](C(=O)NCc1c[nH]nn1)C3 : 1 to 300 nM

Prompt line: Give recorded IC50 with UniProt P10144 for the following compound: CC(=O)N[C@H](C(=O)N[C@H]1CCc2cccc3c2N(C1=O)[C@H](C(=O)NCc1c[nH]nn1)C3)c1ccccc1
Response line: 1000 to 5000 nM

Prompt line: Give recorded IC50 with UniProt P10144 for the following compound: CC(=O)N[C@H]1CCc2cccc3c2N(C1=O)[C@H](C(=O)NCc1c[nH]nn1)C3
Response line: > 5000 nM

Prompt line: Give recorded IC50 with UniProt P10144 for the following compound: CC[C@H](C)[C@H](NC(=O)c1ccncc1)C(=O)N[C@H]1CCc2cccc3c2N(C1=O)[C@H](C(=O)NCc1c[nH]nn1)C3
Response line: 1 to 300 nM

Prompt line: Give recorded IC50 with UniProt P10144 for the following compound: CC(C)[C@H](NC(=O)c1ccccc1F)C(=O)N[C@H]1CCc2cccc3c2N(C1=O)[C@H](C(=O)NCc1c[nH]nn1)C3
Response line: 301 to 1000 nM

Prompt line: Give recorded IC50 with UniProt P10144 for the following compound: CC(C)C[C@H](NC(=O)c1ccccc1)C(=O)N[C@H]1CCc2cccc3c2N(C1=O)[C@H](C(=O)NCc1c[nH]nn1)C3
Response line: 301 to 1000 nM

Prompt line: Give recorded IC50 with UniProt P10144 for the following compound: CC(C)[C@H](NC(=O)c1ccc(F)cc1)C(=O)N[C@H]1CCc2cccc3c2N(C1=O)[C@H](C(=O)NCc1c[nH]nn1)C3
Response line: 301 to 1000 nM
